Tested on: K562
Measurement description: NCI tumour cell line growth inhibition, 48 h
Activity calls are given as the source filed them. No stated cut-off is given here; in the data, active = GI50 up to about 1.1 µM and inactive = higher.
Thanks in advance; please answer with one of these: active, inactive

Task item: Check the results log: what was the call for O=C(/C=C/c1cccc(Br)c1)N1CCN(CCOC(c2ccccc2)c2ccccc2)CC1 ?
Reply: inactive

Task item: Please state the recorded outcome for this compound: COc1ccc(C2SC(=N)Nc3c2c(C)nn3C(=O)c2ccc(Cl)cc2)cc1OC (stereo unspecified)
Reply: inactive

Task item: Given O=c1[nH]c(=O)n(CCOc2ccccc2)cc1Nc1ccccc1 , state the outcome it received in this test.
Reply: inactive

Task item: Outcome? CC1=C(C(=O)Nc2ccc([N+](=O)[O-])cc2)C(c2ccc(N(C)C)cc2)C(C(=O)Nc2ccc([N+](=O)[O-])cc2)=C(C)N1
Reply: inactive

Task item: # fetch the recorded call for COc1cc(-c2cc(=O)c3cc4c(cc3[nH]2)OCO4)cc(OC)c1O here
Reply: inactive

Task item: What call does the record list for Cc1cnc2[nH]c(-c3ccccc3)cc(=O)c2c1 ?
Reply: active

Task item: What was the test verdict on Clc1ccc(COc2ccccc2/C=N/c2c(-c3ccco3)nc3ccccn23)c(Cl)c1 ?
Reply: inactive

Task item: Returns: the outcome recorded for CNc1cc2c(c3ccccc13)C(CCl)CN2C(=O)c1cc2cc(OC)c(OC)c(OC)c2[nH]1 (stereo unspecified) in this assay.
Reply: active

Task item: Which outcome did this test record for the compound O=C(O)CN(c1ccc(Cl)cc1)S(=O)(=O)c1ccccc1 ?
Reply: inactive

Task item: Entry Cc1cc(C)n(CN(CCCCO)Cn2nc(C)cc2C)n1 : call = ?
Reply: inactive

Task item: Hello, I am checking results. What call was entered for COc1c(C(C)C)cc2c3c1OC(=O)[C@@]31CCCC(C)(C)C1CC2 (stereo partly specified) ?
Reply: inactive

Task item: How did this test come out for CC1=NNC(=O)C1C1CC(c2c[nH]c3ccccc23)=NN(c2ccccc2)C1=O (stereo unspecified) ?
Reply: inactive

Task item: How was N#C/C(=C/Sc1ccccc1)C(=O)O classified in this test?
Reply: inactive

Task item: I would be grateful if you could indicate the recorded call for CC(C)N1CN(C(C(=O)N[C@@H]2C(=O)N3C2SC(C)(C)C3C(=O)O)c2ccc(O)cc2)CSC1=S (stereo partly specified) .
Reply: inactive

Task item: Record request — test call for c1ccc(CCCCNCc2cc(CNCCCCc3ccccc3)cc(CNCCCCc3ccccc3)c2)cc1
Reply: active

Task item: For CCc1cccc(CC)c1NC(=O)/C(Cl)=C(/Cl)C(=O)O , what call appears in the results of this test?
Reply: inactive

====

Tested on: Malme-3M
Measurement description: NCI tumour cell line growth inhibition, 48 h
The source made the active and inactive calls. Rule as the data show it: active = GI50 up to about 1.1 µM and inactive = higher.
Reported property: GI50

Task item: // returns reported GI50 for input CNC(=O)OCc1nc(SC)n(C)c1CO
Reply: 1.68 µM (inactive)

Task item: I am curious: what GI50 value has been reported for Oc1ccc([I+]c2ccccc2)cc1O ?
Reply: 28.8 µM (inactive)

Task item: Find the recorded GI50 belonging to O=C(N/N=C/c1cc(-c2ccccc2Cl)c(-c2ccccc2Cl)o1)c1ccncc1 and report it.
Reply: > 100 µM (inactive)

Task item: What GI50 value was documented for this molecule, CCN1C(=O)C(=C/C=C/C=C2/N(C)c3ccccc3C2(C)C)C(=O)N(CC)C1=S ?
Reply: > 100 µM (inactive)

Task item: Please report the recorded GI50 for O=[N+]([O-])C(=C1NCCN1)C(Cl)=C(Cl)Cl .
Reply: > 100 µM (inactive)

Task item: Look up GI50: Cc1nnc2n1N=C(c1cc(F)c(Cl)cc1Cl)/C(=C/c1ccc3c(c1)OCO3)S2
Reply: > 100 µM (inactive)

Task item: Which GI50 value is on record for S=c1[nH]c(Cl)cc2nc(Cl)cn12 ?
Reply: 2.65 µM (inactive)

Task item: Fill in: GI50 of CCC1(C)NN=c2s/c(=C/c3ccc(OC)cc3)c(=O)n2N1 (stereo unspecified) is ___
Reply: > 100 µM (inactive)

Task item: Using the record for CC1(C)CC2(C)CC1CC2NC(=O)CCN1CCOCC1 (stereo unspecified) , report its GI50.
Reply: > 100 µM (inactive)

Task item: Which measured GI50 value corresponds to CCOC(=O)NN(C(=O)OCC)C(=C(c1ccccc1)N1CCOCC1)N(NC(=O)OCC)C(=O)OCC ?
Reply: > 100 µM (inactive)

Task item: // query GI50 value for entry CSc1ncc2c(C#N)c3ccccn3c(=O)c2n1
Reply: > 100 µM (inactive)

# credit: ChEMBL document CHEMBL1201862
